EC50 reference
- Test system: SH-SY5Y cells
- ASSAY SUMMARY: MTT neuroprotection against MPP+-induced cell damage
- Type: cell-based
- EXPERIMENTAL CONDITIONS: pre-treated 12 h, then 2 mM MPP+ 36 h

SUBSTANCE SMILES	EXPERIMENTAL SYSTEM	EC50 (µM)
COc1cc2c(c(OC)c1OC)-c1c(cc3c(c1OC)OCO3)C[C@H](C)[C@](C)(O)[C@H]2OC(=O)c1ccccc1	SH-SY5Y cells	8.1
COc1c2c(cc3c1-c1c(cc4c(c1OC)OCO4)C[C@H](C)[C@H](C)C3)OCO2	SH-SY5Y cells	15.3

###

- Tested on: SH-SY5Y cells
- ASSAY SUMMARY: MTT cytotoxicity of the five lignans
- Type: cell-based

COMPOUND	CC50 / µM
COc1cc2c(c(OC)c1OC)-c1c(cc(OC)c(OC)c1OC)C[C@](C)(O)[C@@H](C)C2 [Schizandrol A, reference compound]	155
COc1cc2c(c(OC)c1OC)-c1c(cc3c(c1OC)OCO3)CC(C)C(C)C2 (stereo not shown) [Schizandrin B, reference compound]	189
COc1cc2c(c(OC)c1OC)-c1c(cc3c(c1OC)OCO3)C[C@H](C)[C@](C)(O)[C@H]2OC(=O)c1ccccc1 [SchiA, Schisantherin A]	121
COc1cc2c(c(OC)c1OC)-c1c(cc(OC)c(OC)c1OC)C[C@H](C)[C@H](C)C2 [Schizandrin A, reference compound]	233

###

- Test system: SH-SY5Y cells
- ASSAY SUMMARY: MTT neuroprotection against 6-OHDA-induced cytotoxicity
- Type: cell-based, Human
- EXPERIMENTAL CONDITIONS: pre-treated 12 h, then 400 μM 6-OHDA 4 h
pEC50: −log10 of the molar value.
pEC50 reference

COMPOUND	pEC50
COc1cc2c(c(OC)c1OC)-c1c(cc3c(c1OC)OCO3)C[C@H](C)[C@](C)(O)[C@H]2OC(=O)c1ccccc1 [SchiA, Schisantherin A]	5.09
COc1c2c(cc3c1-c1c(cc4c(c1OC)OCO4)C[C@H](C)[C@H](C)C3)OCO2 [SC, Schizandrin C]	4.82
